- assay_explanation: NCI Yeast Anticancer Drug Screen. Data for the rad50 strain (AID 155);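 further: 0% = growth of vehicle-only cultures of the same strain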
- study_conditions: S. cerevisiae rad50 strain growth inhibition; at 50.0 µM; active compounds read high
About 79,000 compounds went through this panel and 15% of them were active in at least one assay; those are over-represented in the sample as a whole.
property_measured: growth inhibition (%)
Please state the figure in %; there is no need to write the unit.

These solved cases illustrate the format of a correct answer.
* O=C(O)C(Cc1ccccc1)C(=O)O | 5.8
* CC1CCCC(CC(N)=O)CC1 (centres undefined) | 7.8
* Cc1cccc([N+](=O)[O-])c1Cl | -39.2
* O=C(Nc1cccc(NC(=O)Nc2cc(C(F)(F)F)ccc2Cl)c1)Nc1cc(C(F)(F)F)ccc1Cl | 18.8
* OC(c1ccccn1)C(O)c1ccccn1 (centres undefined) | -2.55
* COc1ccc(C)cc1OC | 26.3
* CCCOC(=O)C(O)c1ccccc1 (centres undefined) | 16.2
* O=c1[nH]n(-c2ccccc2)c(=O)cc1Cl | -0.9
* O=C(O)CCC(NC(=O)OCc1ccccc1)C(=O)O (centres undefined) | -4.05
* CC(=O)OCC1CCCO1 (centres undefined) | -24.9

Task: # growth inhibition lookup, item Cc1cc(C(C)(C)C)cc(C)c1Br
Output: -1.85

Task: Same lookup for O=P(O)(O)OCC(O)CO (centres undefined) , please.
Output: -4.6

Task: Okay, and NC(=O)N/N=C\c1ccco1 ?
Output: 26.1

Provenance of the data: PubChem BioAssay (NCI)
